Recorded MIC P. aeruginosa IMP1 Livermore 3140, one value per entry.
# Test system: Pseudomonas aeruginosa IMP 1 Livermore 3140
# Type: cell-based
# test.context: IMP 1 Livermore 3140
Non-standard residues stand in square brackets, D forms with d. Residues, ends and D or L forms follow the SMILES beside them. Cit = NC(=O)NCCC[C@H](N)C(=O)O; Chg = N[C@H](C(=O)O)C1CCCCC1; dDab = NCC[C@@H](N)C(=O)O; Orn = NCCC[C@H](N)C(=O)O; Dab = NCC[C@H](N)C(=O)O
Quick note: give the figure in µg/mL, leave out the unit.

>  <compound>
C[C@@H]1NC(=O)[C@H](CCN)NC(=O)[C@H](CCN)NC(=O)[C@H](Cc2c[nH]c3ccccc23)NC(=O)[C@H](CCN)NC(=O)[C@H](CCN)NC(=O)[C@H](CCCCN)NC(=O)[C@H](CCN)NC(=O)[C@H](C2CCCCC2)NC(=O)[C@H](Cc2c[nH]c3ccccc23)NC(=O)[C@H]([C@@H](C)O)NC(=O)[C@@H]2CCCN2C(=O)[C@H]2CCCN2C(=O)[C@H](CCN)NC1=O [Example 33] (cyclo(TW[Chg][Dab]K[Dab][Dab]W[Dab][Dab]A[Dab][dP]P))

>  <MIC P. aeruginosa IMP1 Livermore 3140 / µg/mL>
0.43

$$$$
>  <compound>
CC[C@H](C)[C@@H]1NC(=O)[C@H](Cc2c[nH]c3ccccc23)NC(=O)[C@H]([C@@H](C)O)NC(=O)[C@@H]2CCCN2C(=O)[C@H]2CCCN2C(=O)[C@H](CCN)NC(=O)[C@H](C)NC(=O)[C@H](CCN)NC(=O)[C@H](CCN)NC(=O)[C@H](Cc2c[nH]c3ccccc23)NC(=O)[C@H](CCN)NC(=O)[C@@H](CCN)NC(=O)[C@H](CCCCN)NC(=O)[C@H](CCN)NC1=O [Example 41] (cyclo(TWI[Dab]K[dDab][Dab]W[Dab][Dab]A[Dab][dP]P))

>  <MIC P. aeruginosa IMP1 Livermore 3140 / µg/mL>
0.25

$$$$
>  <compound>
CC[C@H](C)[C@@H]1NC(=O)[C@H](Cc2c[nH]c3ccccc23)NC(=O)[C@H](CCCNC(N)=O)NC(=O)[C@@H]2CCCN2C(=O)[C@H]2CCCN2C(=O)[C@H](CCN)NC(=O)[C@H](C)NC(=O)[C@H](CCN)NC(=O)[C@H](CCN)NC(=O)[C@H](Cc2c[nH]c3ccccc23)NC(=O)[C@H](CCN)NC(=O)[C@H](CCN)NC(=O)[C@H](CCCCN)NC(=O)[C@H](CCN)NC1=O [Example 18] (cyclo([Cit]WI[Dab]K[Dab][Dab]W[Dab][Dab]A[Dab][dP]P))

>  <MIC P. aeruginosa IMP1 Livermore 3140 / µg/mL>
0.30

$$$$
>  <compound>
CC[C@H](C)[C@@H]1NC(=O)[C@H](Cc2c[nH]c3ccccc23)NC(=O)[C@H]([C@@H](C)O)NC(=O)[C@@H]2CCCN2C(=O)[C@H]2CCCN2C(=O)[C@H](CCN)NC(=O)[C@H](C)NC(=O)[C@H](CCN)NC(=O)[C@H](CCN)NC(=O)[C@H](Cc2c[nH]c3ccccc23)NC(=O)[C@H](CCC(N)=O)NC(=O)[C@H](CCN)NC(=O)[C@H](CCCCN)NC(=O)[C@H](CCN)NC1=O [Example 39] (cyclo(TWI[Dab]K[Dab]QW[Dab][Dab]A[Dab][dP]P))

>  <MIC P. aeruginosa IMP1 Livermore 3140 / µg/mL>
0.75

$$$$
>  <compound>
CC[C@H](C)[C@@H]1NC(=O)[C@H](Cc2c[nH]c3ccccc23)NC(=O)[C@H]([C@@H](C)O)NC(=O)[C@@H]2CCCN2C(=O)[C@H]2CCCN2C(=O)[C@H](CCN)NC(=O)[C@H](C)NC(=O)[C@H](CCN)NC(=O)[C@H](CCCCN)NC(=O)[C@H](Cc2c[nH]c3ccccc23)NC(=O)[C@H](CCN)NC(=O)[C@H](CCN)NC(=O)[C@H](CCCCN)NC(=O)[C@H](CCN)NC1=O [Example 27] (cyclo(TWI[Dab]K[Dab][Dab]WK[Dab]A[Dab][dP]P))

>  <MIC P. aeruginosa IMP1 Livermore 3140 / µg/mL>
0.50

$$$$
>  <compound>
CC[C@H](C)[C@@H]1NC(=O)[C@H](Cc2c[nH]c3ccccc23)NC(=O)[C@H]([C@@H](C)O)NC(=O)[C@@H]2CCCN2C(=O)[C@H]2CCCN2C(=O)[C@H](CCCCN)NC(=O)[C@H](C)NC(=O)[C@H](CCN)NC(=O)[C@H](CCN)NC(=O)[C@H](Cc2c[nH]c3ccccc23)NC(=O)[C@H](CCN)NC(=O)[C@H](CCN)NC(=O)[C@H](CCCCN)NC(=O)[C@H](CCN)NC1=O [Example 28] (cyclo(TWI[Dab]K[Dab][Dab]W[Dab][Dab]AK[dP]P))

>  <MIC P. aeruginosa IMP1 Livermore 3140 / µg/mL>
0.24

$$$$

Task: Request the reported MIC P. aeruginosa IMP1 Livermore 3140 associated with CC[C@H](C)[C@@H]1NC(=O)[C@H](Cc2c[nH]c3ccccc23)NC(=O)[C@H]([C@@H](C)O)NC(=O)[C@@H]2CCCN2C(=O)[C@H]2CCCN2C(=O)[C@H](CO)NC(=O)[C@H](C)NC(=O)[C@H](CCN)NC(=O)[C@H](CCN)NC(=O)[C@H](Cc2c[nH]c3ccccc23)NC(=O)[C@H](CCN)NC(=O)[C@@H](CCN)NC(=O)[C@H](CCCN)NC(=O)[C@H](CCN)NC1=O [Example 49] (cyclo(TWI[Dab][Orn][dDab][Dab]W[Dab][Dab]AS[dP]P))
Result: 0.50

Task: Request the reported MIC P. aeruginosa IMP1 Livermore 3140 associated with CC[C@H](C)[C@@H]1NC(=O)[C@H](Cc2c[nH]c3ccccc23)NC(=O)[C@H]([C@@H](C)O)NC(=O)[C@@H]2CCCN2C(=O)[C@H]2CCCN2C(=O)[C@H](CCN)NC(=O)[C@H](CC(N)=O)NC(=O)[C@H](CCN)NC(=O)[C@H](CCN)NC(=O)[C@H](Cc2c[nH]c3ccccc23)NC(=O)[C@H](CCN)NC(=O)[C@H](CCN)NC(=O)[C@H](CCCCN)NC(=O)[C@H](CCN)NC1=O [Example 38] (cyclo(TWI[Dab]K[Dab][Dab]W[Dab][Dab]N[Dab][dP]P))
Result: 1.06

Task: Request the reported MIC P. aeruginosa IMP1 Livermore 3140 associated with CC[C@H](C)[C@@H]1NC(=O)[C@H](Cc2c[nH]c3ccccc23)NC(=O)[C@H]([C@@H](C)O)NC(=O)[C@@H]2CCCN2C(=O)[C@H]2CCCN2C(=O)[C@H](CCN)NC(=O)[C@H](C)NC(=O)[C@H](CCN)NC(=O)[C@H](CCN)NC(=O)[C@H](Cc2c[nH]c3ccccc23)NC(=O)[C@H](CCN)NC(=O)[C@H](CCCCN)NC(=O)[C@H](CCCCN)NC(=O)[C@H](CCN)NC1=O [Example 25] (cyclo(TWI[Dab]KK[Dab]W[Dab][Dab]A[Dab][dP]P))
Result: 0.24

* * *

# Tested on: HELA cells (Acc57)
# assay.summary: Cytotoxicity assay, MTT reduction (LC 50, GI 50)
# Type: cell-based
# Description: The cytotoxicity of the peptides to HELA cells (Acc57) and COS-7 cells (CRL-1651) was determined using the MIT reduction assay [see ref. 2 and 3, below]. […] At this point, time zero (Tz) was determined by MTT reduction (see below). […] The absorbance at 595 nm of the solubilized product was measured (OD595peptide). For each concentration averages were calculated from triplicates. […]
Non-standard residues stand in square brackets, D forms with d. Residues, ends and D or L forms follow the SMILES beside them. Dab = NCC[C@H](N)C(=O)O
reported.property: Cytotoxicity GI50 Hela cells (µM)
Quick note: give the figure in µM, leave out the unit.

Task: Request the reported Cytotoxicity GI50 Hela cells associated with CC[C@H](C)[C@@H]1NC(=O)[C@H](Cc2c[nH]c3ccccc23)NC(=O)[C@H]([C@@H](C)O)NC(=O)[C@@H]2CCCN2C(=O)[C@H]2CCCN2C(=O)[C@H](CCN)NC(=O)[C@H](C)NC(=O)[C@H](CCN)NC(=O)[C@H](CCN)NC(=O)[C@H](Cc2c[nH]c3ccccc23)NC(=O)[C@H](CCN)NC(=O)[C@H](CCCCN)NC(=O)[C@H](CCCCN)NC(=O)[C@H](CCN)NC1=O [Example 25] (cyclo(TWI[Dab]KK[Dab]W[Dab][Dab]A[Dab][dP]P))
Result: 50

* * *

# Tested on: Pseudomonas aeruginosa IMP 1 Livermore 3140
# Assay type: cell-based
# test.context: IMP 1 Livermore 3140
Non-standard residues stand in square brackets, D forms with d. Residues, ends and D or L forms follow the SMILES beside them. Ala(cPr) = N[C@@H](CC1CC1)C(=O)O; Dab = NCC[C@H](N)C(=O)O
reported.property: MIC P. aeruginosa IMP1 Livermore 3140 (µg/mL)
Quick note: give the figure in µg/mL, leave out the unit.

Task: Request the reported MIC P. aeruginosa IMP1 Livermore 3140 associated with CC[C@H](C)[C@@H]1NC(=O)[C@H](Cc2c[nH]c3ccccc23)NC(=O)[C@H]([C@@H](C)O)NC(=O)[C@@H]2CCCN2C(=O)[C@H]2CCCN2C(=O)[C@H](CCN)NC(=O)[C@H](CC2CC2)NC(=O)[C@H](CCN)NC(=O)[C@H](CCN)NC(=O)[C@H](Cc2c[nH]c3ccccc23)NC(=O)[C@H](CCN)NC(=O)[C@H](CCN)NC(=O)[C@H](CCCCN)NC(=O)[C@H](CCN)NC1=O [Example 37] (cyclo(TWI[Dab]K[Dab][Dab]W[Dab][Dab][Ala(cPr)][Dab][dP]P))
Result: 1.17
